These records show pKd for TrkA (Homo sapiens, UniProt P04629).
pKd: −log10 of the molar value.
quantity kind: pKd

1) Cc1cc(Nc2cc(N3CCN(C)CC3)nc(SCc3ccc(F)cc3)n2)n[nH]1 [b7] = 8.96
2) CN1CCN(c2cc(Nc3cc(-c4cccc(F)c4)[nH]n3)nc(Sc3ccccc3)n2)CC1 [a1] = 8.59
3) Cc1cc(Nc2cc(N3CCN(C)CC3)nc(Sc3ccccc3)n2)n[nH]1 [Reference 2, reference compound] = 7.52

###

measurement description: Plasma concentration of compound a1 after i.v. injection in mice (LC-MS-MS)
Type: in vivo, C57Bl/6 mice
test context: female, C57Bl/6, mouse, plasma, intravenous, 5 mg/kg (low dose) i.v.
quantity kind: concentration at 1 h (nM)

1) CN1CCN(c2cc(Nc3cc(-c4cccc(F)c4)[nH]n3)nc(Sc3ccccc3)n2)CC1 = 340

###

Documented # Hits across a set of molecules
Tested on: panel of 97 kinases
measurement description: Selectivity profiling, scanEDGE kinase panel (KINOMEscan)
Format: binding
test context: 100 nM; N = 92 non-mutant kinases; cut-off <35% ctrl
quantity kind: # Hits

1) Cc1cc(Nc2cc(N3CCN(C)CC3)nc(Sc3ccc(NC(=O)C4CC4)cc3)n2)n[nH]1 [Tozasertib, reference compound] = 10
2) Cc1ccc(CSc2nc(Nc3cc(C)[nH]n3)cc(N3CCN(C)CC3)n2)cc1 = 17
3) Cc1cc(Nc2cc(N3CCN(C)CC3)nc(SCc3ccc(F)cc3)n2)n[nH]1 = 18
4) CN1CCN(c2cc(Nc3cc(-c4cccc(F)c4)[nH]n3)nc(Sc3ccccc3)n2)CC1 = 7
5) CN1CCN(c2cc(Nc3cc(C4CCCC4)[nH]n3)nc(Sc3ccccc3)n2)CC1 = 19

###

subject of test: AurA (Homo sapiens)
Sequence (O14965 whole entry): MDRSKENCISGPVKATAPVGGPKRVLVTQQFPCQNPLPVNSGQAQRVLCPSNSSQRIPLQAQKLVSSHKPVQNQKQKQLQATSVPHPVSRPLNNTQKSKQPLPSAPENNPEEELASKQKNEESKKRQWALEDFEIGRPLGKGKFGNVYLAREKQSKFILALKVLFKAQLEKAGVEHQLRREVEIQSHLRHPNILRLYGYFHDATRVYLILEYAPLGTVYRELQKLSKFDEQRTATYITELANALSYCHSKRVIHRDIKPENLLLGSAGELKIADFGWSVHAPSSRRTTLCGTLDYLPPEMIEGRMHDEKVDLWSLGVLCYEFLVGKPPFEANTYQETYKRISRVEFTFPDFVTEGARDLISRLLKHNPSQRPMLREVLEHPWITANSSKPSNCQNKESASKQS
measurement description: KINOMEscan primary screen against AurA
Assay type: binding
test context: 1 μM compound; % of control
Lab note: compare % Ctrl. AurA @1 μM with 4 % Ctrl., writing MET if less and NOT MET if equal or more.

1) Cc1ccc(C)c(Sc2nc(Nc3cc(C)[nH]n3)cc(N3CCN(C)CC3)n2)c1 = MET
2) Cc1ccc(CSc2nc(Nc3cc(C)[nH]n3)cc(N3CCN(C)CC3)n2)cc1 = MET
3) CN1CCN(c2cc(Nc3cc(C4CCCC4)[nH]n3)nc(Sc3ccccc3)n2)CC1 = NOT MET
4) CN1CCN(c2cc(Nc3cc(C(C)(C)C)[nH]n3)nc(Sc3ccccc3)n2)CC1 = NOT MET
5) Cc1ccc(Sc2nc(Nc3cc(C)[nH]n3)cc(N3CCN(C)CC3)n2)c(C)c1 = MET
6) Cc1cc(Nc2cc(N3CCN(C)CC3)nc(SCc3cccc4ccccc34)n2)n[nH]1 = NOT MET
7) CN1CCN(c2cc(Nc3cc(-c4cccc(F)c4)[nH]n3)nc(Sc3ccccc3)n2)CC1 = NOT MET
8) Cc1cc(Nc2cc(N3CCN(C)CC3)nc(SCc3ccc(C)c(C)c3)n2)n[nH]1 = NOT MET
9) Cc1cc(Nc2cc(N3CCN(C)CC3)nc(Sc3cccc(C(F)(F)F)c3)n2)n[nH]1 = MET
10) Cc1cc(Nc2cc(N3CCN(C)CC3)nc(SCc3ccc(F)cc3)n2)n[nH]1 = MET
11) Cc1cc(Nc2cc(N3CCN(C)CC3)nc(Sc3ccccc3)n2)n[nH]1 [Reference 2, reference compound] = MET
12) Cc1ccc(C)c(CSc2nc(Nc3cc(C)[nH]n3)cc(N3CCN(C)CC3)n2)c1 = NOT MET
13) CN1CCN(c2cc(Nc3cc4ccccn4n3)nc(Sc3ccccc3)n2)CC1 = NOT MET
14) Cc1cccc(Sc2nc(Nc3cc(C)[nH]n3)cc(N3CCN(C)CC3)n2)c1 = MET
